Target: Signal transducer and activator of transcription 6 (Homo sapiens)
Sequence (P42226 whole entry): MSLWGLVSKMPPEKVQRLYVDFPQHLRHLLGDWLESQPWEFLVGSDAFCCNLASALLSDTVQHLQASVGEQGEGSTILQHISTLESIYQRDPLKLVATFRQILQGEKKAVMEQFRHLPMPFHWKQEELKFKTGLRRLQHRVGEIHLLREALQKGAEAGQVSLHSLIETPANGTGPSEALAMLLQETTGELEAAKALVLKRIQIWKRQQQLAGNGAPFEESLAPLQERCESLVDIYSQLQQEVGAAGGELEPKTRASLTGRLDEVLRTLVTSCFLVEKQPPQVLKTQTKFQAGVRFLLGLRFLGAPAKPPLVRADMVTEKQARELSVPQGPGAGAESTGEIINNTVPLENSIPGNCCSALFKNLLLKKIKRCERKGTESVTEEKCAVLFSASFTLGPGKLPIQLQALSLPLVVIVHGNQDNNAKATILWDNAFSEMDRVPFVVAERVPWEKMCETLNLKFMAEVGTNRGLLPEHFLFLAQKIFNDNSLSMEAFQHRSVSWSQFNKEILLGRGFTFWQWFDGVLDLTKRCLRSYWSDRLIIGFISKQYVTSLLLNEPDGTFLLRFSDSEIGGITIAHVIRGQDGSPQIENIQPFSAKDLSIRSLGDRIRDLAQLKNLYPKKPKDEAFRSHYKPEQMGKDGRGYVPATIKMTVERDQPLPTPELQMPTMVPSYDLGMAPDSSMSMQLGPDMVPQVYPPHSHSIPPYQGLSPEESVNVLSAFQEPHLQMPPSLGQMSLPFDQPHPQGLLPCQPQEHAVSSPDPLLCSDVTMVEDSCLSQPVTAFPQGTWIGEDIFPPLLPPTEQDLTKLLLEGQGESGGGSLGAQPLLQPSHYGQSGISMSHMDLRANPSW
Test: Inhibition of IL-4 induced STAT6 signaling in human HepG2 cells harboring pRL-EF1alpha, pGL3-TK-7xN4 and TOPO-Stat6 plasmid assessed as luciferase activity incubated for 24 hrs
pIC50: −log10 of the molar value.

[
  {
    "STRUCTURE_SMILES": "C/C1=C/C[C@@H](O)[C@H](C)[C@@H](C)OC(=O)Cc2c(Cl)c(O)cc(O)c2C1=O",
    "pIC50": 7.14
  },
  {
    "STRUCTURE_SMILES": "C/C1=C/C[C@H](O)[C@H](C)[C@@H](C)OC(=O)Cc2c(Cl)c(O)cc(O)c2C1=O",
    "pIC50": 7.19
  },
  {
    "STRUCTURE_SMILES": "C/C1=C\\C[C@H](O)[C@H](C)[C@@H](C)OC(=O)Cc2c(Cl)c(O)cc(O)c2C1=O",
    "pIC50": 7.30
  },
  {
    "STRUCTURE_SMILES": "C/C1=C\\C[C@@H](O)[C@H](C)[C@H](C)OC(=O)Cc2c(Cl)c(O)cc(O)c2C1=O",
    "pIC50": 6.00
  },
  {
    "STRUCTURE_SMILES": "C/C1=C\\C[C@H](O)[C@H](C)[C@H](C)OC(=O)Cc2c(Cl)c(O)cc(O)c2C1=O",
    "pIC50": 6.70
  }
]
